Catalogue of molecules with associated activity at 10 µM
Test system: M14
Experiment Description: NCI one-dose SRB assay
Format: cell-based
Assay Conditions: Homo sapiens, M14 (Melanoma), 1.00E-5 Molar, read-out: Growth Percent
Recorded Metric: activity at 10 µM (%)

smiles_representation=COc1ccc(C=C(NC(=O)c2ccccc2)C(=O)Nc2ccc(S(N)(=O)=O)cc2)cc1 reading=107
smiles_representation=NS(=O)(=O)c1ccc(NC(=O)C(=Cc2ccc(Br)cc2)NC(=O)c2ccccc2)cc1 reading=109
smiles_representation=NS(=O)(=O)c1ccc(NC(=O)C(=Cc2ccc(Cl)cc2)NC(=O)c2ccccc2)cc1 reading=102
smiles_representation=Cc1ccc(C=C(NC(=O)c2ccccc2)C(=O)Nc2ccc(S(N)(=O)=O)cc2)cc1 reading=110
smiles_representation=COc1ccc(C=C(NC(=O)c2ccccc2)C(=O)Nc2ccc(S(N)(=O)=O)cc2)cc1OC reading=113
smiles_representation=NS(=O)(=O)c1ccc(NC(=O)C(=Cc2ccc(Cl)cc2Cl)NC(=O)c2ccccc2)cc1 reading=102
smiles_representation=COc1ccc(C=C(NC(=O)c2ccccc2)C(=O)Nc2ccc(S(N)(=O)=O)cc2)c(OC)c1 reading=111
smiles_representation=Cc1ccc(C=C(NC(=O)c2ccccc2)C(=O)Nc2ccc(S(N)(=O)=O)cc2)o1 reading=114
